Assay: yeast display, Sf9 membrane polyspecificity reagent, FACS + sequencing; frameworks hold sequencing errors
Observation Type: polyreactivity (PSR sort gate)

These recorded examples may help you get a feel for the data.
QVQLVETGGGLVQAGGSLRLSCAASGRTFYQYAMGWYRQAPGKERELVAGITFRGGSTNYADSVKGRFTISRDNAKNTVYLQMNSLKPEDTAVYYCAATVYGTVYKGRSQYEYGYWGQGTQVTVSS
high polyreactivity
QVQLVESGGGLVQAGGSLRLSCAASGFTFDLYAMGWSRQAPGKERELVASISSGGITYYADSVKGRFTITRDNANNTVYLQMNSLKPEDTAVYYCARDWRYGSWEGDDYWGQGTQVTVSS
low polyreactivity
QVHLVESGGGLVQAGGSLRLSCAASGSTFGWYAMGWYRPSPGKERELVAAIRSNGGSTYYADSLKGRFTISRDNAKNTVYLQMNSLKPEDTAVFYCAARGSPSKHHWYDYWGQGTQVTVSS
low polyreactivity
QVQLVESGGGLVQAGGSLRLSCAASGSIRYYVMGWYRQAPGKERELVAGINWSGGSTYYADSVKGRFTISRDNAKNTVYLQMNSLKPEDTAVYYCAARFVGVRDGYYYWGQGTQVTVSS
high polyreactivity

Name the recorded polyreactivity (PSR sort gate) for QVQMQESRGGLVQAGGSLRLSCAASGTITTLPAMGWNRQAPGKEREFVAGIDTGAITNYADSVKGRFTISRDNAKNTVYLQKNSLKPEVTAVYYCAVFPAAYDYYERYYTYWGQGTQVTVMS .
low polyreactivity

---

Assay: yeast display, Sf9 membrane polyspecificity reagent, FACS + sequencing; frameworks hold sequencing errors
Observation Type: polyreactivity (PSR sort gate)

// solved cases for polyreactivity (PSR sort gate) follow
QVQLEDSGGGLDQAGGSLRLSCAASGITFIRYAMVWYRQAPGKERELVAAIPTSGSSKFYADSVKGRFTISRDNAKNTVYLQMNSLKPEDTAVYYCAAVFRWARLYTFYGSKVDYWGQGTQVTVSS
high polyreactivity
QVQLVESGVGLVQAGGSLRLSCAASGFTFGDNAMGWYRQAPGKERELVADITSSGSTNYADSVKGRFTISRDNAKNTVYLQMNSLKPEDTAVYYCNAVDSVDAPVYKDLGSEYDSWGQGTQVTVSS
low polyreactivity
QVQLVESGGGLVQAGGSLRLSCAASGSIFYKYAMGWYRQAPGKERELVAAISTSGGSTYYADSVKGRFTISRDNAKNTVYLQMNSLKPEDTAVYYCAKARSYGLGRSYYWGQGTQVTVSS
high polyreactivity
QVQLVESGGGLVQAGGSLRLSCAASGSIFDVNSMGWYRQAPGKERELVAAISDSGGSTYYADSVKGRFTISRDNAKNTVYLQMNSLKPEDTAVYYCNADWSWYNYYDFDYLGQGTQVTVSS
low polyreactivity
QVQLVESGGGLVQAGGSLRLSCAASGSTFAGNAMGWYRQAPGKERESVAAIDSSTGSTYYADSVKGRFTISRDNAKNTVYLQMTSLKPEDTAVYYCNKTSFLVKLDYWGQGTHVTVSS
low polyreactivity
QVQLEESGGGLVQAGGSLRLSCAASGRIFLWYAMGWYRQAPGKERELVAAISSNGGSTRYADSVKGRFTISRDNAKNTVYLQMNSLKPEDTALYYCNADVHWNRYPYGGNGYGYWGQGTQVTVSS
low polyreactivity

Please give the measured polyreactivity (PSR sort gate) for this sequence: QVQLVESGGGLVQAGGSLRLSCAASGRTFKLYAMGWYRQAPGKESELVAAISRSGGSTYYADSVKGRFTISRDNAKNTVYLQMKSLKPEDTAVYYCNRRQGYHGDYDYWGQGTQVTVSS
high polyreactivity

And the next one, QVQLVESGGGLVQAGGSLRLSCAASGSTMDYNAMGWYRQAPGKERELVAAITNGGSTTYADSVKGRFTISRDNAKNTVYLQMNSLNPEDTAVYYCAAKWYPQLWFWKFLTYNYWGQGPQVTVSS ?
low polyreactivity

Likewise for QVQLVESGGGLVQAGGSLRLSCADSGSIFDDYTMGWYRQAPGKERELVAVITTGGTTYYADSVKGRFTISRDNAKNTVYLQMNSLKPEDTAVYYCAAKEANRYRRYYWGQGTQVTVSS ?
high polyreactivity

Taken from the nanobody polyreactivity screen of Harvey et al. (2022).
